- targetEntity: SIRT1 (Homo sapiens)
- testMethodNotes: Trp mass spectrometry assay of SIRT1 activation
- Assay type: biochemical
- conditionNotes: concentration giving 150% activation of SIRT1; Trp peptide substrate
measurementLabel: Tryp AVG EC1.5 (μM)

molecule: O=C(Nc1ncc(-c2ccccc2)s1)N1c2nc(-c3cccc(C(F)(F)F)c3)ccc2N2CC[C@H]1C2 [Example 734]
Tryp AVG EC1.5 (μM): B (B (EC1.5 1-25 μM))
--
molecule: CC(C)(C)OC(=O)NCCCc1ccc(NC(=O)N2c3nc(-c4cccc(C(F)(F)F)c4)ccc3N3CCC[C@H]2C3)cc1-c1cnco1 [Example 752]
Tryp AVG EC1.5 (μM): A (A (EC1.5<1 μM))
--
molecule: O=C(Nc1cccnc1)N1c2nc(-c3cncc(C(F)(F)F)c3)ccc2N2C[C@@H](O)[C@H]1C2 [Example 705]
Tryp AVG EC1.5 (μM): B (B (EC1.5 1-25 μM))
--
molecule: CC(C)(C)OC(=O)NCC#Cc1cc(NC(=O)N2c3nc(-c4cccc(C(F)(F)F)c4)ccc3N3CCC[C@H]2C3)cc(-c2cnco2)c1 [Example 760]
Tryp AVG EC1.5 (μM): A (A (EC1.5<1 μM))
--
molecule: [N-]=[N+]=NCC(=O)NCc1ccc(NC(=O)N2c3nc(-c4cccc(C(F)(F)F)c4)ccc3N3CC[C@H]2C3)cc1 [Example 799]
Tryp AVG EC1.5 (μM): A (A (EC1.5<1 μM))

Now take the following molecule into account.
### Prompt I have this molecule here, NCC#Cc1ccc(NC(=O)N2c3nc(-c4cccc(C(F)(F)F)c4)ccc3N3CC[C@H]2C3)cc1-c1cnco1 [Example 766] , and I need its recorded Tryp AVG EC1.5 (μM).
### Response A (A (EC1.5<1 μM))

---

- targetEntity: SIRT1 (Homo sapiens)
- Sequence (Q96EB6 1-747): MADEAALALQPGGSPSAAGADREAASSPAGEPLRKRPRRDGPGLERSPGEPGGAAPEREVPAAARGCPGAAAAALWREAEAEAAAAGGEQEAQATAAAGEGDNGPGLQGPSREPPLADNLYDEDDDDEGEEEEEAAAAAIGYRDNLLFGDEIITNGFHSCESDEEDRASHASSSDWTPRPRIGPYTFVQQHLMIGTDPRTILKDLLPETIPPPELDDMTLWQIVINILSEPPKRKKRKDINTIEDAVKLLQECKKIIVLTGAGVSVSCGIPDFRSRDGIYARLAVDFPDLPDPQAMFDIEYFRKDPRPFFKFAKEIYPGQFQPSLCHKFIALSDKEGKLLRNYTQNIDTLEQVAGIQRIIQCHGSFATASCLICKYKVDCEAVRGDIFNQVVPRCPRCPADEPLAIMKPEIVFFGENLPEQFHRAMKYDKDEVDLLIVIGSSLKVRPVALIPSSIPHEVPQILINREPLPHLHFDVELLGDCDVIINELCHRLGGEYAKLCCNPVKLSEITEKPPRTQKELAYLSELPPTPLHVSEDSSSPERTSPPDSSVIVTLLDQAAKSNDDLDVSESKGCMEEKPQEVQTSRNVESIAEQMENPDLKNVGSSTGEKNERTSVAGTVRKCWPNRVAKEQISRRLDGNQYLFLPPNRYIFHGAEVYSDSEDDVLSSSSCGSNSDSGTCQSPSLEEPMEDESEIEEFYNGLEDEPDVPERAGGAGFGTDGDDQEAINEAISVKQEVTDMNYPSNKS
- testMethodNotes: Trp mass spectrometry assay of SIRT1 activation
- Type: biochemical
- conditionNotes: Trp peptide assay; maximum activity relative to control (100%); read-out: TRP MAX RESP (percent maximum fold activation)
measurementLabel: Emax

See these solved cases before continuing.
mol: O=C(Nc1ccccn1)N1c2nc(N3CCC[C@@H](C(F)(F)F)C3)ccc2N2CC[C@H]1C2
obsValue: > 150%
--
mol: Cc1ncc(-c2ccc3c(n2)N(C(=O)Nc2cnccn2)[C@H]2CCN3C2)cc1F
obsValue: > 150%

Now take the following molecule into account.
### Prompt Give SIRT1 (Homo sapiens) Emax for Cc1ccc(-c2ccc3c(n2)N(C(=O)Nc2cccc4cnccc24)[C@H]2CCN3C2)cn1
### Response > 150%

---

- targetEntity: SIRT1 (Homo sapiens, UniProt Q96EB6)
- Sequence (Q96EB6 1-747): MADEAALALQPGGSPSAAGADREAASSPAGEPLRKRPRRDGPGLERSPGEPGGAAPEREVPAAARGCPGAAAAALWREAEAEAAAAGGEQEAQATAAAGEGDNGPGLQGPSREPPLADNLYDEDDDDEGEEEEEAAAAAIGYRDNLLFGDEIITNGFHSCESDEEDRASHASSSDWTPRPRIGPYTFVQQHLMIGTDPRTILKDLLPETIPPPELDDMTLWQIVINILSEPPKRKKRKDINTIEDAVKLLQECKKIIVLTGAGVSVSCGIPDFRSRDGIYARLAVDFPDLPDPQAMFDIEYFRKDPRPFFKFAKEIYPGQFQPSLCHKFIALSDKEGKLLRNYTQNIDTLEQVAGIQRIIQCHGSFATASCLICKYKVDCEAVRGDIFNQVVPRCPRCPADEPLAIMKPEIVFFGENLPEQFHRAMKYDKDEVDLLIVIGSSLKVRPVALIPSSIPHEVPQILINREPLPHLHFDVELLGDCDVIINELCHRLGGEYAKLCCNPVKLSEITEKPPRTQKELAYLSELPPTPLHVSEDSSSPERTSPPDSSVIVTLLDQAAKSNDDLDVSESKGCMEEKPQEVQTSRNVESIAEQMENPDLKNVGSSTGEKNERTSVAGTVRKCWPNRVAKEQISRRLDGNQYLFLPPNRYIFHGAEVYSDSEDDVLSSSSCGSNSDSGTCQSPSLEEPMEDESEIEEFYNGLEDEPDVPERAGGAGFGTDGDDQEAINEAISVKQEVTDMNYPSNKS
- testMethodNotes: Trp mass spectrometry assay of SIRT1 activation
- Format: biochemical
- conditionNotes: Trp mass spectrometry assay; concentration of test compound giving 150% activation of SIRT1
measurementLabel: Tryp AVG EC1.5 (μM)

See these solved cases before continuing.
molecule: COc1cc(NC(=O)N2c3nc(-c4cccc(C(F)(F)F)n4)ccc3N3CC[C@H]2C3)ncn1
targetEntity: SIRT1 (Homo sapiens, UniProt Q96EB6)
Tryp AVG EC1.5 (μM): B (B (EC1.5 1-25 μM))
--
molecule: N#Cc1cccc(-c2ccc3c(n2)N(C(=O)Nc2cccnc2)[C@H]2CCCN3C2)c1
targetEntity: SIRT1 (Homo sapiens, UniProt Q96EB6)
Tryp AVG EC1.5 (μM): A (A (EC1.5<1 μM))
--
molecule: COc1cc(NC(=O)N2c3nc(-c4ccnc(N5CCC(C(F)(F)F)C5)c4)ccc3N3CC[C@H]2C3)ncn1 (some centres unmarked)
targetEntity: SIRT1 (Homo sapiens, UniProt Q96EB6)
Tryp AVG EC1.5 (μM): B (B (EC1.5 1-25 μM))
--
molecule: O=C(Nc1cnccn1)N1c2nc(-c3cccc(C(F)(F)F)n3)ccc2N2CC[C@H]1C2
targetEntity: SIRT1 (Homo sapiens, UniProt Q96EB6)
Tryp AVG EC1.5 (μM): B (B (EC1.5 1-25 μM))

### Prompt I have this molecule here, O=C(Nc1ccccn1)N1c2nc(-c3cc(F)cc(C(F)(F)F)c3)ccc2N2CC[C@H]1C2 , and I need its recorded Tryp AVG EC1.5 (μM).
### Response A (A (EC1.5<1 μM))

### Prompt I have this molecule here, O=C(Nc1ccccn1)N1c2nc(-c3cncc(C(F)(F)F)c3)ccc2N2CCC[C@H]1C2 , and I need its recorded Tryp AVG EC1.5 (μM).
### Response A (A (EC1.5<1 μM))

### Prompt I have this molecule here, C[C@@H]1CCN(C)c2ccc(-c3cccc(CC(O)CO)c3)nc2N1C(=O)Nc1ccc(F)cn1 (some centres unmarked) , and I need its recorded Tryp AVG EC1.5 (μM).
### Response A (A (EC1.5<1 μM))

### Prompt I have this molecule here, O=C(Nc1ccccn1)N1c2nc(-c3ccc4nonc4c3)ccc2N2CC[C@H]1C2 , and I need its recorded Tryp AVG EC1.5 (μM).
### Response B (B (EC1.5 1-25 μM))

---

- targetEntity: UniProt Q96EB6
- Sequence (Q96EB6 1-747): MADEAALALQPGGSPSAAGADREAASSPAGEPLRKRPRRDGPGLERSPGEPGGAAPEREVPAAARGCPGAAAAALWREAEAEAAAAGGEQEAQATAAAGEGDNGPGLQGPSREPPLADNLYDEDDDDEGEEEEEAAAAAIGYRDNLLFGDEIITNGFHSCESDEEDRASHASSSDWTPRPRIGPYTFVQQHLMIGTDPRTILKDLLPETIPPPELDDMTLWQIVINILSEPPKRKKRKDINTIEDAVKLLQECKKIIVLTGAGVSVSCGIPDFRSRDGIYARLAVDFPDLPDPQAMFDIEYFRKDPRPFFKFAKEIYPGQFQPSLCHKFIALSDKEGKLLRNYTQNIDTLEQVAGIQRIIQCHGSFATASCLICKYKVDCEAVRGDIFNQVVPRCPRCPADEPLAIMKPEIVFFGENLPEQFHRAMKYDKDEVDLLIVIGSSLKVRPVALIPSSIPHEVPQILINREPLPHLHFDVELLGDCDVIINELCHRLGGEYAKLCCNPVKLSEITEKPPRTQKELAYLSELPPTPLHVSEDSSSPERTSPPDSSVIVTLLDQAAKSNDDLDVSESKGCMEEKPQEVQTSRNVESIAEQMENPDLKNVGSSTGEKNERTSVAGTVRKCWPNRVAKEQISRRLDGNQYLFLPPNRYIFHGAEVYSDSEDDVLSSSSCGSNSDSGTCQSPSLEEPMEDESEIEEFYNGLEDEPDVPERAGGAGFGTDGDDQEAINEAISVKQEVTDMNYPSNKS
- testMethodNotes: Trp mass spectrometry assay of SIRT1 activation
- Assay type: biochemical
- conditionNotes: concentration giving 150% activation of SIRT1; Trp peptide substrate
measurementLabel: Tryp AVG EC1.5 (μM)

mol: O=C(Nc1ccncn1)N1c2nc(-c3cncc(C(F)(F)F)c3)ccc2N2C[C@@H](O)[C@H]1C2
obsValue: B (B (EC1.5 1-25 μM))
--
mol: C#CCOc1cccc(NC(=O)N2c3nc(-c4cccc(C5(C(F)(F)F)N=N5)c4)ccc3N3CC[C@H]2C3)c1
obsValue: A (A (EC1.5<1 μM))
--
mol: CC(C)(C)OC(=O)NCC#Cc1ccc(NC(=O)N2c3nc(-c4cccc(C(F)(F)F)c4)ccc3N3CCC[C@H]2C3)cc1-c1cnco1
obsValue: A (A (EC1.5<1 μM))
--
mol: O=C(NCCCc1ccncc1)N1c2nc(-c3cccc(C(F)(F)F)c3)ccc2N2CC[C@H]1C2
obsValue: B (B (EC1.5 1-25 μM))
--
mol: CC(C)(C)OC(=O)NCC#Cc1ccc(NC(=O)N2c3nc(-c4cccc(C(F)(F)F)c4)ccc3N3CC[C@H]2C3)cc1-c1cnco1
obsValue: A (A (EC1.5<1 μM))

Now take the following compound into account.
### Prompt I have this compound here, COc1cc(NC(=O)N2c3nc(-c4cccc(C(F)(F)F)c4)ccc3N3C[C@@H](O)[C@H]2C3)nc(OC)n1 , and I need its recorded Tryp AVG EC1.5 (μM).
### Response B (B (EC1.5 1-25 μM))
